The reported numbers originate from the supplement of paper PMC10567573.

B1: SNAP91 (parent)
chain: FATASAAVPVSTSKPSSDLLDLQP

# Variants of: B1
# Assay Method Text: protein stability index of a GFP-peptide fusion (GPS, HEK-293T) (PSI 1-6); higher = more stable;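 also: lentivirally expressed fusions sorted by FACS into six bins by GFP to DsRed ratio, PSI derived from sequencing read proportions per bin multiplied by bin number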
# Recorded Conditions: c terminus: a fixed tail appended
Returns one of yes or no; yes when protein stability index is >= 4.

- Primary Sequence: "FATASAAVPVSTSKPSKDLLDLQP [S17K]"
  Assigned Label: "no"
- Primary Sequence: "FATASAAVPVSTSKPSSDLLRLQP [D21R]"
  Assigned Label: "no"
- Primary Sequence: "FATASAAVPVSTSKPSSDLNDLQP [L20N]"
  Assigned Label: "no"
- Primary Sequence: "FATASRAVPVSTSKPSSDLLDLQP [A6R]"
  Assigned Label: "no"
- Primary Sequence: "RATASAAVPVSTSKPSSDLLDLQP [F1R]"
  Assigned Label: "yes"
- Primary Sequence: "FATASAAVPVSTSKPSSDLLDLEP [Q23E]"
  Assigned Label: "yes"
- Primary Sequence: "FATASAAVPVSTSKPSSDLLDLFP [Q23F]"
  Assigned Label: "no"
- Primary Sequence: "FATASAAVPESTSKPSSDLLDLQP [V10E]"
  Assigned Label: "yes"
- Primary Sequence: "FATASAAVPVSTSKPISDLLDLQP [S16I]"
  Assigned Label: "no"
- Primary Sequence: "FATASAAVPVSTSKPSSDLLVLQP [D21V]"
  Assigned Label: "no"

Could you tell me if the measured protein stability index of FATASAAVPVSTSKPSSDLLDLCP [Q23C] reaches 4 or more?
no

Decide: protein stability index of SATASAAVPVSTSKPSSDLLDLQP [F1S] >= 4?
yes

Reported protein stability index reaches at least 4 for FATAFAAVPVSTSKPSSDLLDLQP [S5F] ?
no

# bool: protein stability index of FATASAAVPVRTSKPSSDLLDLQP [S11R] >= 4
no
